system: Inhibin beta A chain (activin A); experiment: INHBA (activin A) binders on microarrays, primary screen, biochemical, small-molecule microarray, 635 nm fluorescence scan (AID 1107); details: small-molecule microarray binding, higher = more signal;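 note: mouse activin A protein probed at 4.33 µg/mL on printed slides; score merges bound-protein fluorescence near 667 nm with spot signal-to-noise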
Recorded endpoint: composite z-score
Lab note: jot the number down without any unit.

Completed entries (count: 6):
[
  {
    "Compound": "C[C@@H](c1ccccc1)N1C(=O)[C@H]2[C@H]3[C@H](O)[C@H](O)CC(=NOC[C@@H](O)COCc4ccco4)[C@@H]3CC[C@H]2C1=O",
    "composite z-score": -0.365
  },
  {
    "Compound": "CC(CCN1CCc2nc(-c3ccccc3)c(-c3ccccc3)cc2C1)=NO[C@H](C)c1cn([C@@H]2COC[C@H]2O)nn1",
    "composite z-score": 0.763
  },
  {
    "Compound": "CC(C)CON=C1C[C@@H](O)[C@@H](O)[C@@H]2[C@@H]3C(=O)N(C[C@@H]4CCCO4)C(=O)[C@@H]3CC[C@H]12",
    "composite z-score": 0.07
  },
  {
    "Compound": "Cc1ccc(S[C@]2(C(=O)NCC(F)(F)F)CC(=O)N(Cc3ccccc3Cl)[C@@H]2c2ccc(CO)cc2I)cc1",
    "composite z-score": 0.117
  },
  {
    "Compound": "O=C1[C@H]2[C@H]3[C@H](O)[C@H](O)CC(=NO[C@@H]4O[C@H](CO)[C@@H](O)[C@H](O)[C@H]4O)[C@@H]3CC[C@H]2C(=O)N1Cc1ccccc1",
    "composite z-score": -1.43
  },
  {
    "Compound": "O=C1[C@H]2[C@H]3[C@H](O)[C@H](O)CC(=NOC[C@@H](O)COCc4ccco4)[C@H]3CC[C@H]2C(=O)N1C1CCCCC1",
    "composite z-score": 1.31
  }
]

Lab note: next compound to report on.
Report composite z-score for COCCNC(=O)OCC1CCCC2(CC(OC(=O)NCCc3ccc(F)cc3)CC(CCC(=O)N[C@@H](C)C(=O)OC)O2)O1 (some centres not stated) please.
0.415

---

biological target: Epidermal growth factor receptor (Homo sapiens) (UniProt P00533); assay: EGFR binders on small-molecule microarrays, primary screen, biochemical, small-molecule microarray, 635 nm fluorescence (AID 1104); conditions: EGFR binding, higher = more signal;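 note: score merges 667 nm emission intensity with spot signal to noise over triplicate slides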
Sequence (P00533 whole entry, looked up): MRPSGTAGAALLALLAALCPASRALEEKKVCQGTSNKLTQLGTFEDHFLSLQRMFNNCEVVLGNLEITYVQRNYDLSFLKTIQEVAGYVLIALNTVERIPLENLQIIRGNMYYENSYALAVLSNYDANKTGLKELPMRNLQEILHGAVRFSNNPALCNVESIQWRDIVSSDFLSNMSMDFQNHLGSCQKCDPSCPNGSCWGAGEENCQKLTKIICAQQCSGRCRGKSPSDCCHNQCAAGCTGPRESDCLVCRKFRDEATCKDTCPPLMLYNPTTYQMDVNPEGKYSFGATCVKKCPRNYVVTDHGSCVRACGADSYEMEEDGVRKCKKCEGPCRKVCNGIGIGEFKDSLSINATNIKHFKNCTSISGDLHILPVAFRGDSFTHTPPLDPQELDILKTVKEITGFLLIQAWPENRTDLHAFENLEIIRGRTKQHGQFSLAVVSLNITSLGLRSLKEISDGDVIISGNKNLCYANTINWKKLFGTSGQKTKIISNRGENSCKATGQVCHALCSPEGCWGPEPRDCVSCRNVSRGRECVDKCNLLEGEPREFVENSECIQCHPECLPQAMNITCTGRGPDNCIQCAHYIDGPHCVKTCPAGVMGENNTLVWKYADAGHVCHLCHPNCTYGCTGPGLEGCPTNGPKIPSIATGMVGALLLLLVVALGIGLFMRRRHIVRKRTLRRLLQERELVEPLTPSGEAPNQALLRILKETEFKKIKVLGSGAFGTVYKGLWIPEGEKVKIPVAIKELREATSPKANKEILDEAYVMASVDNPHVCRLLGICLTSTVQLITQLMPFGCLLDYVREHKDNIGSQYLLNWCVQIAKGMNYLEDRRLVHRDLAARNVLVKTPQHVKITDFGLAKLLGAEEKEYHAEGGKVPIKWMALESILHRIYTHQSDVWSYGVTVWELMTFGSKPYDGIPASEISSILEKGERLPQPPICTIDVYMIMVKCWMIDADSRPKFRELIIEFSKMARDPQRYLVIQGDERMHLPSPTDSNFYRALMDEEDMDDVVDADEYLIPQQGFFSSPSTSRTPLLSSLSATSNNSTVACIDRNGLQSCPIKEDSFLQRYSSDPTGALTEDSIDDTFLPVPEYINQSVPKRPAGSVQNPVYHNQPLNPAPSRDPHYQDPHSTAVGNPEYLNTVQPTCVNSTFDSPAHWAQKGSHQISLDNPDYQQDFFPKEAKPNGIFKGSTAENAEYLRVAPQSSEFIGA
Recorded endpoint: composite z-score
Lab note: jot the number down without any unit.

Completed entries (count: 5):
[
  {
    "Molecule": "C=CC[C@@H]1C=C[C@H](ON=C[C@@H](OC)[C@H](C)C=CCC(=O)OC)[C@@H](CO)O1",
    "composite z-score": -0.0453
  },
  {
    "Molecule": "C=CCC(OC(C)=O)[C@@H]1[C@@H](N(Cc2cc3ccccc3o2)C(=O)Cc2ccc(F)cc2)c2cc(OCCCO)ccc2N1C(=O)Cc1ccc(OC)cc1 (some centres undefined)",
    "composite z-score": -0.239
  },
  {
    "Molecule": "Cc1ccc(F)cc1S(=O)(=O)N[C@@H]1CCN(Cc2ccc(CC(C)C)cc2)C1",
    "composite z-score": -0.397
  },
  {
    "Molecule": "COC(=O)[C@H](C)NC(=O)CCC1CC(OC(=O)NCc2cccc3ccccc23)CC2(CCCC(COC(=O)NCCc3ccc(Cl)cc3)O2)O1 (some centres undefined)",
    "composite z-score": 0.381
  },
  {
    "Molecule": "[N-]=[N+]=NCc1ccccc1[C@@H]1OC(c2ccc(OCCCO)cc2)=N[C@]1(Cc1ccccc1)C(=O)N1CCOCC1",
    "composite z-score": 0.0588
  }
]

Report composite z-score for `CCOC(=O)CCN1C(=O)[C@H]2[C@H]3[C@H](O)C=CC(=O)[C@@H]3CC[C@H]2C1=O` please.
0.678

Report composite z-score for `COc1ccc(CCNC(=O)[C@@H]2c3ccccc3C(=O)N(c3ccc(C)cn3)[C@H]2c2ccc(CO)cc2)cc1` please.
-1.68

Report composite z-score for `CO[C@@H]1COC(=O)CC=C[C@@H](C)[C@@H]2C=C[C@H](O)[C@@H](COC(=O)CCC[C@H]1C)O2` please.
1.21

---

biological target: Homeobox protein Hox-A13 (Mus musculus); assay: inhibitors of HoxA13-DNA binding, primary screen, biochemical, fluorescence polarization, labeled oligonucleotide (AID 1185); conditions: 15 min, higher = more signal, called active from +8 up or from −8 down
Recorded endpoint: z-score
Lab note: jot the number down without any unit.

Completed entries (count: 5):
[
  {
    "Compound": "CC(=O)OC[C@H]1O[C@H](CC=NOC[C@@H](C)[C@H](OCc2ccccc2)C(C)C)C=C[C@@H]1OC(C)=O",
    "z-score": -5.81
  },
  {
    "Compound": "C#CCCCON=C1C[C@@H](O)[C@@H](O)[C@@H]2[C@@H]3C(=O)N(CCC(=O)OCC)C(=O)[C@@H]3CC[C@@H]12",
    "z-score": -5.09
  },
  {
    "Compound": "C[C@H](c1ccccc1)N1C(=O)[C@H]2[C@@H]3C(=CC[C@H]2C1=O)C(=O)[C@H]1O[C@H]1[C@H]3O",
    "z-score": -6.83
  },
  {
    "Compound": "O[C@@H](Cc1ccccc1)[C@H]1C2C=CCCC(c3ccccc3)=C2CN1Cc1cccc(Cl)c1 (some centres not stated)",
    "z-score": -5.87
  },
  {
    "Compound": "CCOC(=O)[C@H](Cc1ccccc1)NC(=O)CCC1CC(OC(=O)NCc2ccc3c(c2)OCO3)CC2(CCCC(COC(=O)NCC(c3ccccc3)c3ccccc3)O2)O1 (some centres not stated)",
    "z-score": -3.45
  }
]

Report z-score for `CCCC[C@@H](O)C1=C(C)C[C@H]2C(=O)N(Cc3ccccc3)C(=O)[C@H]2[C@H]1CO` please.
-3.33

Report z-score for `COC(=O)[C@@]1(Cc2ccc(OC)cc2)[C@H]2c3cc(C(=O)N4CCCC4)n(Cc4cc(F)c(F)c(F)c4)c3C[C@H]2CN1C(=O)c1ccccc1` please.
-2.27

---

target: Follistatin-related protein 3 (Homo sapiens) (UniProt O95633); assay: FSTL3 binders on small-molecule microarrays, primary screen, biochemical, small-molecule microarray, 635 nm fluorescence (AID 1105); conditions: FSTL3 binding, higher = more signal;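 note: score merges emission near 667 nm and signal to noise per printed spot across three slides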
Sequence (O95633 whole entry, looked up): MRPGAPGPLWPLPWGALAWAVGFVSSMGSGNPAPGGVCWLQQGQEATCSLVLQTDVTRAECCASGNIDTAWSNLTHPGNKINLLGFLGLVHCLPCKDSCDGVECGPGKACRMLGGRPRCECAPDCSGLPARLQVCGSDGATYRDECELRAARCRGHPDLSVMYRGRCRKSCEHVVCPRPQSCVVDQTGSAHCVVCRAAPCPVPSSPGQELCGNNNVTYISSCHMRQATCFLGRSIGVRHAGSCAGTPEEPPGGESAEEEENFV
Attribute: composite z-score
Lab note: jot the number down without any unit.

Report composite z-score for `CN(C)CCCNC(=O)[C@@H]1c2ccccc2C(=O)N(Cc2ccccc2)[C@H]1c1ccc(CO)cc1` please.
0.433

Report composite z-score for CC(=O)O[C@H]1C2=C(C(=O)[C@@H]3O[C@@H]31)[C@H]1C(C)O[C@@H]2[C@@]23C(=O)[C@@H]4O[C@@H]4[C@@H](O)C2=CO[C@H](C)[C@@H]13 (some centres undefined) please.
-0.0861

Report composite z-score for `CC(C)=CCCC(C)=CCON=C1[C@H]2CCn3c(=O)n(C)c(=O)n3[C@H]2[C@H](O)[C@@H]2O[C@H]12` please.
1.05

Report composite z-score for `CC(=O)OC[C@H]1O[C@H](CCON=C(C)CCN2CCc3nc(-c4ccccc4)c(-c4ccccc4)cc3C2)C=C[C@@H]1OC(C)=O` please.
0.189

---

assay: MM1S myeloma cell viability, profiling panel, resazurin fluorescence, basal, 24 h, PK04 Diversity Set (AID 1174); settings: higher = more signal, called active from +8 up or from −8 down;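 note: MM1S multiple myeloma cell line; test concentration not given here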
Recorded endpoint: z-score
Lab note: jot the number down without any unit.

[
  {
    "Entry smiles": "O=C1C[C@@H](O)[C@@H](O)[C@@H]2[C@@H]3C(=O)N(c4ccc(F)cc4F)C(=O)[C@@H]3CC[C@@H]12",
    "z-score": 0.491
  },
  {
    "Entry smiles": "C=CCOC(=O)[C@H]1[C@@H]2C(=O)O[C@@H](c3ccccc3)[C@@H](c3ccccc3)N2[C@@H](c2ccc(OCCOC(=O)[C@H]3C[C@H]4C(=O)N5CCC[C@H]5C(=O)N4[C@H]3c3cccc(OCCO)c3)cc2)[C@]12C(=O)Nc1ccc(I)cc12",
    "z-score": -0.376
  },
  {
    "Entry smiles": "O=C1C2=CC[C@H]3C(=O)N(Cc4ccc5c(c4)OCO5)C(=O)[C@H]3[C@H]2[C@H](O)[C@@H]2O[C@H]12",
    "z-score": -0.677
  }
]

Report z-score for `Cc1ccc(F)cc1S(=O)(=O)N[C@@H]1CCN(Cc2ccc(CC(C)C)cc2)C1` please.
-0.653

Report z-score for `COc1ccc([Si](C)(C)[C@@H]2[C@@H](CC(=O)N3CCC[C@H]3CO)O[C@]3(C(=O)N(Cc4cccc(N5CCC5=O)c4)c4ccccc43)[C@H]2C)cc1` please.
-2.64

Report z-score for `Cc1ccc(S[C@]2(C(=O)NCC(F)(F)F)CC(=O)N(Cc3ccccc3Cl)[C@@H]2c2ccc(CO)cc2I)cc1` please.
-3.29
